The following variants are shown together with reported protein stability index values.
B1: ZNF263 (parent)
chain: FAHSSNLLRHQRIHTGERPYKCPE

Variants of: B1
Test: protein stability index of a GFP-peptide fusion (GPS, HEK-293T) (PSI 1-6); higher = more stable;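 note: lentivirally expressed fusions sorted by FACS into six bins by GFP to DsRed ratio, PSI derived from sequencing read proportions per bin multiplied by bin number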
Settings: c terminus: a fixed tail appended
Write the number on its own, no unit after it.

Some variants with recorded protein stability index:
[[record]]
seq_string = "FAHSGNLLRHQRIHTGERPYKCPE"
result_type = "protein stability index"
test_value = 1.74

[[record]]
seq_string = "FAHSSNLLRHQRIHTGERPYICPE"
result_type = "protein stability index"
test_value = 2.6

[[record]]
seq_string = "FAHSSNLLRIQRIHTGERPYKCPE"
result_type = "protein stability index"
test_value = 1.81


Problem: Report protein stability index for `FAHSSNLLRNQRIHTGERPYKCPE` please.
Result: 2.38

Problem: What do you have for `FAHSSNLLRHQRINTGERPYKCPE` ?
Result: 2.71

Problem: What do you have for `FAHSSNLMRHQRIHTGERPYKCPE` ?
Result: 2.68

Problem: What do you have for `FAHSSNLLRHQRIHTGERPYKCEE` ?
Result: 2.67
